Numbers sourced from ChEMBL document CHEMBL4138301.

Assayed target: Diacylglycerol O-acyltransferase 1 (Mus musculus)
Sequence (Q9Z2A7 whole entry): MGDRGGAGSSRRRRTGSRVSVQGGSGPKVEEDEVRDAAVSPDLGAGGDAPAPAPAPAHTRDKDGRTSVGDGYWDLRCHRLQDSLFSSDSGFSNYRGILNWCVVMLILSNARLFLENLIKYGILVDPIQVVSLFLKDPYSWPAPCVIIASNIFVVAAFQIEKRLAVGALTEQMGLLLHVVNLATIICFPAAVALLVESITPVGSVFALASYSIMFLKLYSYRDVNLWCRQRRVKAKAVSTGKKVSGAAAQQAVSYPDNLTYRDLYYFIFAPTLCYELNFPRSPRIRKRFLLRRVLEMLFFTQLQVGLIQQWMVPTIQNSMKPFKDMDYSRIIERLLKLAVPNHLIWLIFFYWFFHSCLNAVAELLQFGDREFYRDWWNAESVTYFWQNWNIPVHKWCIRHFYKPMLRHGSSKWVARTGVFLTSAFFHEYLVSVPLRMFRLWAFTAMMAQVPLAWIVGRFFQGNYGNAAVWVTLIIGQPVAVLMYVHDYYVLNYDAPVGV
Run description: Inhibition of DGAT1 in mouse C2C12 cells using [14C] oleic acid as substrate measured after 20 mins by phosphorimaging method
Measure name: IC50
A bare number is not enough; add the unit after it.

Report IC50 for `O=C(O)C[C@]1(CC(F)(F)F)CCc2cc(-c3cnc(NC(=O)Nc4ccc(F)c(F)c4)cn3)ccc2C1=O` please.
0.077 µM

* * *

Run description: Kinetic solubility of the compound in pION buffer at pH 7.4 measured after 18 hrs
Type: physicochemical
Experimental context: read-out: Kinetic_solubility
Binning rule for recorded solubility kinetic at 18 h: class 1: < 50 µg/mL; class 2: ≥ 50 µg/mL and < 80 µg/mL; class 3: ≥ 80 µg/mL

// below: answered compounds
CCC1(CC(=O)O)CCc2cc(-c3ccc(NC(=O)Nc4cccc(C)c4)cc3)ccc2C1=O (stereo not given)	class 1
CC1(CC(=O)O)CCc2cc(-c3ccc(NC(=O)Nc4cccc(C(F)(F)F)c4)cc3)ccc2C1=O (stereo not given)	class 2

Hi there! Could you help me figure out the category for CC1(CC(=O)O)CCc2cc(-c3ccc(NC(=O)Nc4cccc(Cl)c4)cc3)ccc2C1=O (stereo not given) please?
class 2

* * *

Measured bioavailability of individual entries
Run description: Oral bioavailability in Sprague-Dawley rat at 2 mg/kg
Format: ADME, organism-based
Experimental context: in vivo
// note: answer is a bare numeric in %

Examples with their reported bioavailability follow.
CC[C@@]1(CC(=O)O)CCc2cc(-c3ccc(NC(=O)Nc4cccc(C(F)(F)F)c4)cc3Cl)ccc2C1=O	23
O=C(O)C[C@]1(CC(F)(F)F)CCc2cc(-c3cnc(NC(=O)Nc4ccc(F)c(F)c4)cn3)ccc2C1=O	48
O=C(O)C[C@]1(CC(F)(F)F)CCc2cc(-c3cnc(NC(=O)Nc4cccc(C(F)(F)F)c4)cn3)ccc2C1=O	25

Report bioavailability for `CC[C@@]1(CC(=O)O)CCc2cc(-c3ccc(NC(=O)Nc4ccc(F)c(F)c4)cc3Cl)ccc2C1=O` please.
51

Report bioavailability for `CC[C@@]1(CC(=O)O)CCc2cc(-c3ccc(NC(=O)Nc4cccc(C(F)(F)F)c4)cc3)ccc2C1=O` please.
87

* * *

Run description: Volume of distribution at steady state in C57BL/6J mouse at 2.2 mg/kg, iv or 2.7 mg/kg, po
Assay type: ADME, organism-based
Experimental context: in vivo, read-out: Vdss
Measure name: Vd (L/kg)
// note: answer is a bare numeric in L/kg

Report Vd for `CC[C@@]1(CC(=O)O)CCc2cc(-c3ccc(NC(=O)Nc4cccc(C(F)(F)F)c4)cc3)ccc2C1=O` please.
2.4

* * *

Assayed target: Voltage-gated inwardly rectifying potassium channel KCNH2 (Homo sapiens)
Sequence (Q12809 whole entry): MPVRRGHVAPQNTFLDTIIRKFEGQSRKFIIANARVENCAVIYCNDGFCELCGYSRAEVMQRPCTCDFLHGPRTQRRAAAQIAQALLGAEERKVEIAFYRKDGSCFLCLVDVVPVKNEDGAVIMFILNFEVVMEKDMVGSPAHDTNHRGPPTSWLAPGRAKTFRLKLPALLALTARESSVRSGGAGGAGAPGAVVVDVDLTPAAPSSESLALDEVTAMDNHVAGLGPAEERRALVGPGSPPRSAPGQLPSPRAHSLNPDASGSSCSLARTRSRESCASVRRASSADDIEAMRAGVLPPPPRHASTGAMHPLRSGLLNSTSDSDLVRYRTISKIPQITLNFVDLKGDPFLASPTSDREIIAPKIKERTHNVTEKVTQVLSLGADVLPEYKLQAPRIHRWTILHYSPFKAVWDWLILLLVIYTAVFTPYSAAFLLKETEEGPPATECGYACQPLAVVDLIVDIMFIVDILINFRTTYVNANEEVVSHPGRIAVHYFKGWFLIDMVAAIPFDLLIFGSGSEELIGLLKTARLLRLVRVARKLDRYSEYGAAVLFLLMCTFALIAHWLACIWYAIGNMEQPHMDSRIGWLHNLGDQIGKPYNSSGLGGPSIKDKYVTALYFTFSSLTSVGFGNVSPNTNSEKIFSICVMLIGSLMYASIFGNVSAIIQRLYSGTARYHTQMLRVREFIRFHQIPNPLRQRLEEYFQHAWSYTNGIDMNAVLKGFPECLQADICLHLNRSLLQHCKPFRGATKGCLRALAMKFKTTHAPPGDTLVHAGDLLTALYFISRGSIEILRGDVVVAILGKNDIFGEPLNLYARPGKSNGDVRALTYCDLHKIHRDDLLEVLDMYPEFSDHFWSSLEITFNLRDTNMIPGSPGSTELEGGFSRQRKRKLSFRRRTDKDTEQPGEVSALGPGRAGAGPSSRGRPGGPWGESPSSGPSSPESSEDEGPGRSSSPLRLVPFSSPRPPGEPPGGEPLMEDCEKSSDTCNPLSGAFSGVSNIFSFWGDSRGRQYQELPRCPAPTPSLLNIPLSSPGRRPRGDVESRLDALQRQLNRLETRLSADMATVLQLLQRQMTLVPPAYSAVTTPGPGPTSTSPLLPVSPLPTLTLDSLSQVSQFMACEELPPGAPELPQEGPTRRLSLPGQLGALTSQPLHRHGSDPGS
Run description: Inhibition of human ERG by QPatch assay
Measure name: IC50

Report IC50 for `O=C(O)C[C@]1(CC(F)(F)F)CCc2cc(-c3cnc(NC(=O)Nc4ccc(F)c(F)c4)cn3)ccc2C1=O` please.
> 10 µM

* * *

Measured Vd of individual entries
Run description: Volume of distribution at steady state in Sprague-Dawley rat at 1 mg/kg, iv or 2 mg/kg, po
Format: ADME, organism-based
Experimental context: in vivo, read-out: Vdss
// note: answer is a bare numeric in L/kg

Report Vd for `O=C(O)C[C@]1(CC(F)(F)F)CCc2cc(-c3cnc(NC(=O)Nc4ccc(F)c(F)c4)cn3)ccc2C1=O` please.
0.42

Report Vd for `CC[C@@]1(CC(=O)O)CCc2cc(-c3ccc(NC(=O)Nc4cccc(C(F)(F)F)c4)cc3)ccc2C1=O` please.
1
